# key: entry, value: pKi
# Test system: D(1A) dopamine receptor (Rattus norvegicus)
# Sequence (P18901 whole entry): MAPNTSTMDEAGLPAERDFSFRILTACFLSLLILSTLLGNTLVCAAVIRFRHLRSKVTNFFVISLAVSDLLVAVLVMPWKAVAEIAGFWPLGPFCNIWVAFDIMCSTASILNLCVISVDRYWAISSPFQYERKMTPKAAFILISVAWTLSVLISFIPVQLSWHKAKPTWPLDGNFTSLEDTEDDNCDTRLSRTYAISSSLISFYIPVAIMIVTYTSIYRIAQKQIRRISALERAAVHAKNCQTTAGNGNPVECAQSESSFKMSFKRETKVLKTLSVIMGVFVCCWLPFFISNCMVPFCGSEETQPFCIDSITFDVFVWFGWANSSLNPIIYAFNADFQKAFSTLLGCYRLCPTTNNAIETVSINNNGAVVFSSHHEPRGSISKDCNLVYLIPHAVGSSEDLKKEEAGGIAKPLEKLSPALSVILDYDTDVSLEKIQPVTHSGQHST
# Experimental protocol: Displacement of [3H]SCH23390 from dopamine D1 receptor in Wistar rat striatal membrane by liquid scintillation counting
When answering, recall that pKi equals minus log10 of the concentration in mol/L, and write that number alone.

COc1cc2c(cc1Cl)CCNC2c1ccccc1 (stereo not drawn); 5.22
Oc1cc2c(cc1Cl)CCNC2c1ccccc1 (stereo not drawn); 6.61
CCCCC1NCCc2cc(O)c(Cl)cc21 (stereo not drawn); 5.49
CCCCC1NCCc2cc(Cl)c(O)cc21 (stereo not drawn); 5.92
Oc1cc2c(cc1Cl)CCNC2Cc1ccccc1 (stereo not drawn); 6.49

Short answer please: pKi, D(1A) dopamine receptor (Rattus norvegicus), entry CCCCC1NCCc2cc(Cl)c(OC)cc21 (stereo not drawn)
4.76

Same question for CN1CCc2cc(Cl)c(O)cc2C1Cc1ccccc1 (stereo not drawn) please.
6.95

Follow-up entry: CCCCC1c2cc(OC)c(Cl)cc2CCN1C (stereo not drawn)
5.14

Do the same for COc1cc2c(cc1Cl)CCNC2Cc1ccccc1 (stereo not drawn) please
5.63

// query: COc1cc2c(cc1Cl)CCN(C)C2Cc1ccccc1 (stereo not drawn)
5.79

---

log10(Ki) listing for selected compounds.
# Test system: D(2) dopamine receptor (Rattus norvegicus)
# Sequence (P61169 whole entry): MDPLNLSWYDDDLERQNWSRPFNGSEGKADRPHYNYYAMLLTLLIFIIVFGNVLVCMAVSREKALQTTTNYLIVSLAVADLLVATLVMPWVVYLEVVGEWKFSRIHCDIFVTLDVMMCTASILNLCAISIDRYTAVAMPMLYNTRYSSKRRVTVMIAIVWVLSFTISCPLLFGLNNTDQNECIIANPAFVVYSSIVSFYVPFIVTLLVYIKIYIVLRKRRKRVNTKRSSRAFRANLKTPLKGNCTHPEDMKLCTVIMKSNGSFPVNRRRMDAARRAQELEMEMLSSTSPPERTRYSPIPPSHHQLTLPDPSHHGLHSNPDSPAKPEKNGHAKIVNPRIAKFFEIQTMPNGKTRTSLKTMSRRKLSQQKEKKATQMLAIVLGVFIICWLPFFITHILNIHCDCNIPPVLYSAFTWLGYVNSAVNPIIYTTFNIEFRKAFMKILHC
# Experimental protocol: Displacement of [3H]raclopride from dopamine D2 receptor in Wistar rat striatal membrane by liquid scintillation counting
# Format: cell membranes, Striatum
# Test conditions: read-out: pKi (converted)
// stored as log10 of Ki expressed in nM

Sample records with log10(Ki):
CCCCC1c2cc(OC)c(Cl)cc2CCN1C (configuration not stated); 3.58
CCCCC1c2cc(O)c(Cl)cc2CCN1C (configuration not stated); 2.60
COc1cc2c(cc1Cl)CCNC2c1ccccc1 (configuration not stated); 3.79
COc1cc2c(cc1Cl)CCN(C)C2Cc1ccccc1 (configuration not stated); 3.18
CN1CCc2cc(Cl)c(O)cc2C1Cc1ccccc1 (configuration not stated); 2.32

Name the reported log10(Ki) value associated with the compound CCCCC1NCCc2cc(Cl)c(OC)cc21 (configuration not stated)
2.89

// next record Oc1cc2c(cc1Cl)CCNC2Cc1ccccc1 (configuration not stated)
1.82

Next: Oc1cc2c(cc1Cl)CCNC2c1ccccc1 (configuration not stated)
3.05

Could you do the same for COc1cc2c(cc1Cl)CCN(C)C2c1ccccc1 (configuration not stated) , please?
3.33

Again, but for COc1cc2c(cc1Cl)CCNC2Cc1ccccc1 (configuration not stated)
2.99

One more compound: CN1CCc2cc(Cl)c(O)cc2C1c1ccccc1 (configuration not stated)
2.70

# iterate: CCCCC1NCCc2cc(O)c(Cl)cc21 (configuration not stated)
1.78

---

# Test system: D(2) dopamine receptor (Rattus norvegicus)
# Experimental protocol: Displacement of [3H]raclopride from dopamine D2 receptor in Wistar rat striatal membrane by liquid scintillation counting
# Type: cell membranes, Striatum
# Test conditions: read-out: Ki
Value type: pKi
Scale explanation: pKi corresponds to minus log10 of a concentration expressed in moles per litre.

CCCCC1NCCc2cc(Cl)c(O)cc21 (configuration not stated); 7.04

Switching to the query record.
Could you tell me which pKi is on file for Oc1cc2c(cc1Cl)CCNC2Cc1ccccc1 (configuration not stated) ?
7.15

FYI, the data here is from ChEMBL document CHEMBL1154100.
